B1: INTS3 (parent)
chain: KKREFRFHPIKETVVEEPVDITPY

Variants of: B1
Test: protein stability index of a GFP-peptide fusion (GPS, HEK-293T) (PSI 1-6); higher = more stable;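 note: lentivirally expressed fusions sorted by FACS into six bins by GFP to DsRed ratio, PSI derived from sequencing read proportions per bin multiplied by bin number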
Details: c terminus: a fixed tail appended
Reported protein stability index values are given for each entry in this list.
Lab note: record the figure alone, no unit after it.

Reference set (2 entries):
changes | assay_endpoint | recorded_measurement
Y24C | protein stability index | 2.16
E4K | protein stability index | 2.79

According to the records, this variant `R3F` displays protein stability index of 1.62

According to the records, this variant `P9H` displays protein stability index of 2.83
